Catalogue of molecules with associated pEC50
system: PBMC; assay: Inhibition of IL-17AA production in anti-CD3 and anti-CD28 stimulated human PBMC measured […] by Sandwich ELISA; format: functional, cell-based
pEC50: −log10 of the molar value.

| SMILES_ENTRY | pEC50 |
| --- | --- |
| CC(=O)N1CCN(c2ccc(CN3[C@@H](C)CC[C@H](c4ccccc4)S3(=O)=O)c(F)c2)CC1 | 6.35 |
| CC(=O)N1CCN(c2ccc(CN3C[C@H](C)OC[C@H](c4ccccc4)S3(=O)=O)c(F)c2)CC1 | 6.35 |
| CC(=O)N1CCN(c2ccc(CN3CCCC[C@H](c4ccccc4)S3(=O)=O)c(F)c2)CC1 | 6.37 |
| CC(=O)N1CCN(c2ccc(CN3[C@@H](C)COC[C@H](c4ccccc4)S3(=O)=O)c(F)c2)CC1 | 6.12 |
| CC(=O)N1CCN(c2ccc(CN3CCOC[C@H](c4ccccc4)S3(=O)=O)c(F)c2)CC1 | 5.92 |

---

Catalogue of compounds with associated EC50
target: Nuclear receptor ROR-alpha (Homo sapiens, UniProt P35398); assay: Inverse agonist activity at GAL4-fused human RORa expressed in HEK293 cells assessed as […] of basal transcriptional activity by dual-glo luciferase reporter gene assay; assay type: cell-based
Sequence (P35398 whole entry, the tested form may be a part): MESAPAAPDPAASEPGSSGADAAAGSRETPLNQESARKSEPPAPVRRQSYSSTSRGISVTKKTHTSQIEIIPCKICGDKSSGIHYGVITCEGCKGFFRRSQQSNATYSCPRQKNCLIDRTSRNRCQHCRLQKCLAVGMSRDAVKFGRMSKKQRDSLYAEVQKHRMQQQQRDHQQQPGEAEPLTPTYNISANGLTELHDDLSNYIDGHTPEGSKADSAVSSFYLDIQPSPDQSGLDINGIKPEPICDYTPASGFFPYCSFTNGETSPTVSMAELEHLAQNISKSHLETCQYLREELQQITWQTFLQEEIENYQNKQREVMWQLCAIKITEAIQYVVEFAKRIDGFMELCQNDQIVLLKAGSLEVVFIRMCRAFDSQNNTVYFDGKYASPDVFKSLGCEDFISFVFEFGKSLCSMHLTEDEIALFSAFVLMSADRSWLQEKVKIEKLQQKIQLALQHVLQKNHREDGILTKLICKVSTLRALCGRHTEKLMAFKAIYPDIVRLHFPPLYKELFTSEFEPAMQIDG

| SMILES_ENTRY | OUTPUT_UNIT | RELATION | EC50 |
| --- | --- | --- | --- |
| CC(=O)N1CCN(c2ccc(CN3CCCC[C@H](c4ccccc4)S3(=O)=O)c(F)c2)CC1 | µM | = | 6.8 |
| CC(=O)N1CCN(c2ccc(CN3[C@@H](C)CC[C@H](c4ccccc4)S3(=O)=O)c(F)c2)CC1 | µM | = | 5.4 |
| CC(=O)N1CCN(c2ccc(CN3C[C@H](C)OC[C@H](c4ccccc4)S3(=O)=O)c(F)c2)CC1 | µM | > | 10 |
| CC(=O)N1CCN(c2ccc(CN3[C@@H](C)COC[C@H](c4ccccc4)S3(=O)=O)c(F)c2)CC1 | µM | > | 10 |

---

target: Nuclear receptor ROR-gamma (Homo sapiens); test: Inverse agonist activity at human RORc-LBD assessed as inhibition of SRC1 co-activator peptide recruitment by FRET assay
Sequence (P51449 whole entry, the tested form may be a part): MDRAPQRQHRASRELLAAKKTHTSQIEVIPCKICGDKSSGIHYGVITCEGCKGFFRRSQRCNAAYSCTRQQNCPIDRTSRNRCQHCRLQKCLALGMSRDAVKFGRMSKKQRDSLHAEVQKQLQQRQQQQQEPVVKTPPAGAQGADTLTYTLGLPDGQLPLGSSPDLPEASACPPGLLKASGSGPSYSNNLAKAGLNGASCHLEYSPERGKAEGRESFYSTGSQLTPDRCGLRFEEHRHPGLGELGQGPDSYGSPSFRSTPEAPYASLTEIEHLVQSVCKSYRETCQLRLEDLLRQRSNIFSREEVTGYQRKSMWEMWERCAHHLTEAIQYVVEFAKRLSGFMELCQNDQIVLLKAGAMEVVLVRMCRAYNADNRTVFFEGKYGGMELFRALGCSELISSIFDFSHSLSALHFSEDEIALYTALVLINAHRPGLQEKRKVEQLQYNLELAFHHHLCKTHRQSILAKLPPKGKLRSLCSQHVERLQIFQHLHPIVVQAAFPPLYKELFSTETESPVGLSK
API: label(entry) gives 1.0 if the entry's EC50 is strictly smaller than 0.03 µM; on equality or larger values it gives 0.0.

| SMILES_ENTRY | TESTED_ON | ANSWER_LABEL |
| --- | --- | --- |
| COc1ccccc1[C@H]1CC[C@H](C)N(Cc2ccc(N3CCN(C(C)=O)CC3)cc2F)S1(=O)=O | Nuclear receptor ROR-gamma (Homo sapiens) | 0.0 |
| CC(=O)N1CCN(c2ccc(CN3[C@@H](C)CC[C@H](c4ccccn4)S3(=O)=O)c(F)c2)CC1 | Nuclear receptor ROR-gamma (Homo sapiens) | 0.0 |
| CC(=O)N1CCN(c2ccc(CN3[C@@H](C)CC[C@H](c4cccs4)S3(=O)=O)c(F)c2)CC1 | Nuclear receptor ROR-gamma (Homo sapiens) | 1.0 |
| CC(=O)N1CCN(c2ccc(CN3[C@@H](C)CC[C@H](c4ccc(Cl)cc4)S3(=O)=O)c(F)c2)CC1 | Nuclear receptor ROR-gamma (Homo sapiens) | 0.0 |
| CC(=O)N1CCN(c2ccc(CN3C[C@H](C)OC[C@H](c4ccccc4)S3(=O)=O)c(F)c2)CC1 | Nuclear receptor ROR-gamma (Homo sapiens) | 1.0 |
| CC(=O)N1CCN(c2ccc(CN3[C@@H](C)COC[C@H](c4ccccc4)S3(=O)=O)c(F)c2)CC1 | Nuclear receptor ROR-gamma (Homo sapiens) | 1.0 |
| CC(=O)N1CCN(c2ccc(CN3[C@H](C)COC[C@H](c4ccccc4)S3(=O)=O)c(F)c2)CC1 | Nuclear receptor ROR-gamma (Homo sapiens) | 0.0 |
| CC(=O)N1CCN(c2ccc(CN3[C@@H](C)CC[C@H](c4ccc(C#N)cc4)S3(=O)=O)c(F)c2)CC1 | Nuclear receptor ROR-gamma (Homo sapiens) | 0.0 |
| CC(=O)N1CCN(c2ccc(CN3CCCC[C@H](c4ccccc4)S3(=O)=O)c(F)c2)CC1 | Nuclear receptor ROR-gamma (Homo sapiens) | 1.0 |
| CC(=O)N1CCN(c2ccc(CN3[C@@H](C)CC[C@H](c4ccccc4C#N)S3(=O)=O)c(F)c2)CC1 | Nuclear receptor ROR-gamma (Homo sapiens) | 0.0 |
| CC(=O)N1CCN(c2ccc(CN3[C@@H](C)CC[C@H](c4ccccc4Cl)S3(=O)=O)c(F)c2)CC1 | Nuclear receptor ROR-gamma (Homo sapiens) | 0.0 |
| CC(=O)N1CCN(c2ccc(CN3[C@@H](C)CC[C@H](c4ncccn4)S3(=O)=O)c(F)c2)CC1 | Nuclear receptor ROR-gamma (Homo sapiens) | 0.0 |
| CC(=O)N1CCN(c2ccc(CN3[C@@H](C)CC[C@H](c4cccnc4)S3(=O)=O)c(F)c2)CC1 | Nuclear receptor ROR-gamma (Homo sapiens) | 0.0 |
| CC(=O)N1CCN(c2ccc(CN3[C@@H](C)CC[C@H](c4cccc(Cl)c4)S3(=O)=O)c(F)c2)CC1 | Nuclear receptor ROR-gamma (Homo sapiens) | 1.0 |
